- Tested on: Saccharomyces cerevisiae
- Assay details: Inhibition of huntingtin in Saccharomyces cerevisiae coexpressing exon 1 fragments with polyQ region Huntington disease (HD) model assessed as increase in cell viability
Active and inactive are the calls of the source. The calls are words filed in the database; no cut-off is given here.

Compound: COc1c2c(cc3c1C(CC(=O)/C=C/c1ccco1)[N+](C)(C)CC3)OCO2 (centres undefined)
inhibition: inactive
--
Compound: CCCN1C(=O)C(=O)c2cc(C)ccc21
inhibition: inactive
--
Compound: CCCCCCCCC(=O)N(Cc1ccco1)C(C)c1nc2ccccc2c(=O)n1-c1cc(C)ccc1C (centres undefined)
inhibition: inactive
--
Compound: NNc1nnc(-c2ccccc2)c2ccccc12
inhibition: inactive

---

- System: Brain
- Assay details: Inhibition of medium spiny neuron degeneration in rat brain slice Huntington disease (HD) model after 4 days
- Assay type: functional, tissue-based
Calls of active or inactive are those of the source. The rule behind the calls is not given here.
Can you answer with just one of these options? active, inactive

Compound: CCCc1cc(OC(=O)C(CC)c2ccccc2)n(-c2cccc(F)c2)n1 (centres undefined)
Class: active

Identify the outcome logged in this assay for the compound shown: CCCCCCCCCC(=O)Oc1cc(-c2ccccc2)nn1-c1cccc(C)c1
inactive

What is the recorded call for this compound in the test? CCCc1cc(OC(=O)c2ccccc2F)n(-c2cccc(F)c2)n1
active

Write down the call the test reported for this compound. Item: COc1c2c(cc3c1C(CC(=O)/C=C/c1ccco1)[N+](C)(C)CC3)OCO2 (centres undefined)
inactive

---

- Assay details: Cytotoxicity against rat ST14A cells transfected with human htt gene
- Format: cell-based
- Condition label: read-out: TC50 (the source's name)
Readout label: CC50 (µM)
// units = µM; emit number, no label

Illustrative cases are given below, each with its answer.
Compound: CCCCCCCCC(=O)N(Cc1ccco1)C(C)c1nc2ccccc2c(=O)n1-c1cc(C)ccc1C (centres undefined)
CC50 / µM: 39
--
Compound: O=C(Cc1cccs1)/C(=N/NC(=O)c1cccc(Br)c1)C(F)(F)F
CC50 / µM: 48
--
Compound: CC(C)CC(NC(=O)OCc1ccccc1)C(=O)Oc1ccc2c(=O)c(-c3ccc([N+](=O)[O-])cc3)coc2c1 (centres undefined)
CC50 / µM: 38
--
Compound: COc1ccc(CN(CCC2(c3ccccc3)CCOC(C)(C)C2)C(=O)c2ccco2)cc1OC (centres undefined)
CC50 / µM: 50
--
Compound: CC(=O)N(C1=C(N(C)C)C(=O)c2ccccc2C1=O)c1ccc(Br)cc1
CC50 / µM: 29

Using the record for CCCc1cc(OC(=O)C(CC)c2ccccc2)n(-c2cccc(F)c2)n1 (centres undefined) , report its CC50.
218

# input compound: COC1=CC2C(=O)C(=O)N3C2C(=C1)[C@H](C)CC3(C)C (some centres undefined) ; wanted: its CC50
77

Return reported CC50; argument: CC1CN(C(C)c2nc3ccccc3c(=O)n2-c2ccc(F)cc2)CCC1C(=O)C1CC1 (centres undefined)
37

Look up CC50 for this compound: CCC1CN2CCc3cc(OC)c(OC)cc3C2CC1CC1c2cc(OC)c(OC)cc2CCN1C(=O)c1ccco1 (centres undefined)
42

GET /values?readout=CC50&item= CC1(C)C(C=C(Cl)Cl)C1C(=O)C1=C(O)CCCC1=O (centres undefined)
79

Could you tell me which CC50 is on file for CCCCCCN(C(=O)CCCC)C(C)c1nc2ccccc2c(=O)n1-c1ccccc1OC (centres undefined) ?
26

# query: CC50 of entry CC(C)C1=CCC2C(=C1)CCC1[C@@]2(C)CCC[C@]1(C)C(=O)O (some centres undefined)
53

---

- Assay details: Cytotoxicity against rat ST14A cells transfected with human htt gene
- Format: cell-based
- Condition label: read-out: TC50 (the source's name)
Response field label takes YES when CC50 is strictly below 70 µM and NO in all other cases.

Solved entries:
Molecule: O=c1[nH]c2c(c(=O)[nH]1)C(c1cccc([N+](=O)[O-])c1)C=C(c1ccccc1)O2 (configuration not stated)
Class: NO
//
Molecule: COc1ccc(C(CCN(CC2CCOC(C)(C)C2)C(C)=O)c2ccccc2)cc1 (configuration not stated)
Class: YES
//
Molecule: CCCN1C(=O)C(=O)c2cc(C)ccc21
Class: NO
//
Molecule: CCCCCCCCCC(=O)Oc1cc(-c2ccccc2)nn1-c1cccc(C)c1
Class: NO
//
Molecule: CC1=NN(C(N)=S)C(=O)/C1=N/Nc1ccccc1C(F)(F)F
Class: YES

Quick check: CC50 of Oc1ccc2c(c1)CC1NCCc3cc(O)c(O)c-2c31 (configuration not stated) under 70 µM?
NO

Record CCCc1ccc(CC2=C(O)C(=O)c3ccccc3C2=O)cc1 : is its CC50 strictly below 70 µM?
YES

Hello, I'm reviewing records and need to know if CC50 of CCOC(=O)c1cccc(NS(=O)(=O)c2ccc(OC)cc2)c1 is below 70 µM. Could you check?
NO

Criterion: CC50 strictly below 70 µM. Is it met by NNc1nnc(-c2ccccc2)c2ccccc12 ?
NO

In the record for COc1cc2c(cc1OC)C(C)N(C(=O)NCc1ccccc1)CC2 (configuration not stated) , is CC50 less than 70 µM?
YES

Report whether reported CC50 is lower than 70 µM (strictly) for COc1c2c(cc3c1C(CC(=O)/C=C/c1ccco1)[N+](C)(C)CC3)OCO2 (configuration not stated)
NO

Take the molecule Cc1ccc(-c2nc(NS(=O)(=O)c3ccc(Cl)cc3)sc2C)cc1 and say whether its CC50 is less than 70 µM.
YES

---

- Assay details: Cytotoxicity against rat ST14A cells transfected with human htt gene
- Type: cell-based
- Condition label: read-out: TC50 (the source's name)
# Lookup of reported CC50 keyed by entry
Give the value, in units of µM, as a plain number.

Consider the worked cases shown below.
Compound: COc1ccccc1C(CCN(C(C)=O)C(C)c1ccccc1)C1CCC(C)(C)OC1 (stereo not given)
Readout label: CC50
Unit descriptor: µM
Measured result: 47
--
Compound: Cc1nc2c(O)c(Br)ccn2c(=O)c1Br
Readout label: CC50
Unit descriptor: µM
Measured result: 24
--
Compound: CC1=NC(Nc2nc(C)c3cc(C)c(C)cc3n2)=NC(C)(C)C1
Readout label: CC50
Unit descriptor: µM
Measured result: 32
--
Compound: CCCc1cc(OC(=O)c2ccccc2F)n(-c2cccc(F)c2)n1
Readout label: CC50
Unit descriptor: µM
Measured result: 235

# get_value(readout='CC50', item= CCCCc1ccc(C(=O)N(CCC(=O)N2CCC(Cc3ccccc3)CC2)Cc2ccco2)cc1 )
41
